Assay Text: yeast display, Sf9 membrane polyspecificity reagent, FACS + sequencing; frameworks hold sequencing errors
Readout Name: polyreactivity (PSR sort gate)

Example entries and their recorded answers appear below.
Exercise: polyreactivity (PSR sort gate) lookup needed for QVQLVESGGGLVQAGGSLRLSCAASGRIFVTNAMGWYRQAPGKERELVAAISYRGGRTYYADSVKGRFTISRDNAKNTVYLQMNSLKPEDTAVYYCNAVTRGPFDYWGQGTQVTVSS , thanks.
Key: high polyreactivity

Exercise: polyreactivity (PSR sort gate) lookup needed for QVQLVESGGGLVQAGGSLRLSCAASGRTFFPNEMGWYRQAPGKERELVAAITSAGSTNYADSVKGRFTISRDNEKTTVYLQMNSLKPEETAVYYCAAVYPPIHQRYIVDYWGQGTQETVSS , thanks.
Key: low polyreactivity

Exercise: polyreactivity (PSR sort gate) lookup needed for QVQLVESGGGLVQAGGSLRLSCAASGFIFTWYDMGWYRQAPGKERELVAAISRSGGSTYYADSVKGRFTISRDNAKNTVYLQMNSLKPEDTAVYYCIVYRSKKRYGWGEDDYWGQGSQVTVSS , thanks.
Key: high polyreactivity

Exercise: polyreactivity (PSR sort gate) lookup needed for QVQLVESGGGLVQAGGSLRLSCAASGRTFLRYAMGWYRQAPGKERELVAAISSRGGSTYYADSVKGRFTISRDNAKNTVYLQMNSLKPEDTAVYYCAARFLHYYPTRGYTYDYWGQGTQVTVSS , thanks.
Key: high polyreactivity

More entries:
Exercise: polyreactivity (PSR sort gate) lookup needed for QVQLVESGGGLVQAGGSLRLSCAASGSIFIYYAMGWYRQAPGKERELVAAISFSGARTYYADSVKGRFTISRDNAKNNVSLQMNSLKPEDTAVYYCNVEIGTGDYDYWGQGTQVTVSS , thanks.
Key: low polyreactivity

Exercise: polyreactivity (PSR sort gate) lookup needed for QVQLVESGGGLVQAGGSLRLSCAASGRTFWDYAMGWYRQAPGKERELVAAITGGITNYADSVKGRFTISRDNAKNTVYLQMNSLKPEDTAVYYCAVYYRRWFSRYDYWGQGTQVTVSS , thanks.
Key: low polyreactivity

Exercise: polyreactivity (PSR sort gate) lookup needed for QVQLVESGGGLVEAGGSLRLSCAASGYIFGSYAMGWYRHAPGKERELVASISKSGGSTYYADSVKGRFTISRDNAKNTVYLQMNSLKPEDTAVYYCAAAGIGGGGWGQGTQVTVSS , thanks.
Key: low polyreactivity

Exercise: polyreactivity (PSR sort gate) lookup needed for QVQLVESGGGLVQAGGSLRLSCAASGSIYTPNVMGWYRQAPGKERELVAAISQSGGSTFYADSVKGRFTISRDNAKNTVYLQMNSLKPEDTAVYYCATEYYGPVYDLDYDYWGQGTQVTVSS , thanks.
Key: low polyreactivity
